These measurements were taken from patent US8748608B2.

# Target Desc: human dopamine D3 receptor (Homo sapiens (Human), UniProt P35462)
# Sequence (P35462 whole entry): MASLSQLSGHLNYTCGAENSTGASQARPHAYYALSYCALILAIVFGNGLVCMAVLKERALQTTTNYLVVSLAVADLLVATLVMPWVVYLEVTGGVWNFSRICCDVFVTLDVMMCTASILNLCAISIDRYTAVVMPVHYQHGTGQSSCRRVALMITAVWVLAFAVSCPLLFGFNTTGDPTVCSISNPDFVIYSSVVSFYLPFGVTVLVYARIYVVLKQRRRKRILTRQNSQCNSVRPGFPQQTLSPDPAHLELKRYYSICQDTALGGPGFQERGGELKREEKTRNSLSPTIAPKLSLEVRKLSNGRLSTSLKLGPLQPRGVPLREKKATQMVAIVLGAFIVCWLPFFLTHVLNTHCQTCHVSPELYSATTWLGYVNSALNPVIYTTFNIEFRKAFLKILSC
# Method Description: Human D2-like receptor competition binding in HEK cells, D3
# Run Conditions: HEK cells, hD3; read-out: D3 Ki
Note to self: use met only for Ki readings below 2 nM; a reading exactly at 2 nM still gets not met.

These recorded examples may help you get a feel for the data.
- Compound: "O=C(NCC(O)CCN1CCN(c2cccc(Cl)c2Cl)CC1)c1cc2ccccc2[nH]1 (centres unmarked) [Compound 36]"
  Label Class: "met"
- Compound: "COc1ccccc1N1CCN(CC(O)CCNC(=O)c2ccc3c(c2)Cc2ccccc2-3)CC1 (centres unmarked) [Compound 19]"
  Label Class: "met"

Lab note: confirm whether the reported Ki for this compound is below 2 nM, equality not counting. compound: O=C(NCCC(O)CN1CCN(c2cccc(Cl)c2Cl)CC1)c1cc2cc(F)ccc2o1 (centres unmarked) [Compound 46]
met

====

// reported IC50 for each item listed
# Target Desc: human dopamine D3 receptors in CHO cells (Homo sapiens (Human))
# Method Description: D3 inhibition of quinpirole stimulation of mitogenesis (antagonist assay)
# Run Conditions: inhibition of 30 nM quinpirole stimulated mitogenesis, CHOp cells; read-out: IC50 ± S.E.M., D3
# Protocol: The cells were incubated at 37° C. in α-MEM with 10% FBS, 0.05% penicillin-streptomycin, and 200 μg/mL of G418. After 48 hours, the cells were rinsed twice with serum-free α-MEM and incubated for 24 hours at 37° C. […] The cells were then trypsinized, and the plates were filtered and counted as usual in the art. […]
Only the number, expressed in nM, is required.

Below, 4 compounds whose answers are already recorded.
- Compound: "Cc1cccc(-c2ccc(C(=O)NC/C=C/CN3CCN(c4cccc(Cl)c4Cl)CC3)cc2)n1"
  Measured Quantity: "IC50"
  Experimental Result: 6.7
- Compound: "Cc1cccnc1-c1ccc(C(=O)NC/C=C/CN2CCN(c3cccc(Cl)c3Cl)CC2)cc1"
  Measured Quantity: "IC50"
  Experimental Result: 25.6
- Compound: "O=C(NCC(O)CCN1CCN(c2cccc(Cl)c2Cl)CC1)c1ccc(-c2ccccn2)cc1 (centres unmarked)"
  Measured Quantity: "IC50"
  Experimental Result: 5.4
- Compound: "COc1ccccc1N1CCN(CC(O)CCNC(=O)c2ccc(-c3ccccn3)cc2)CC1 (centres unmarked)"
  Measured Quantity: "IC50"
  Experimental Result: 12.8

Consider the additional compound presented here.
Recorded IC50 for `COc1ccccc1N1CCN(C/C=C/CNC(=O)c2ccc(-c3ccccn3)cc2)CC1` with human dopamine D3 receptors in CHO cells (Homo sapiens (Human)), please?
42.6

====

# Target Desc: human dopamine D3 receptors in CHO cells (Homo sapiens (Human), UniProt P35462)
# Sequence (P35462 whole entry): as above
# Method Description: D3 stimulation of mitogenesis (agonist assay)
# Type: cell-based
# Run Conditions: CHOp cells, read-out: partial agonist activity: EC50, D3 (converted)
Measured Quantity: EC50 (nM)
Only the number, expressed in nM, is required.

- Molecule: "O=C(NCC(O)CCN1CCN(c2cccc(Cl)c2Cl)CC1)c1ccc(-c2ccccn2)cc1 (stereo not shown)"
  EC50 [nM]: 3.4

EC50 lookup needed for CC(=O)OC(CCNC(=O)c1ccc(-c2ccccn2)cc1)CN1CCN(c2cccc(Cl)c2Cl)CC1 (stereo not shown) , thanks.
3.9

EC50 lookup needed for O=C(NCCC(O)CN1CCN(c2cccc(Cl)c2Cl)CC1)c1ccc(-c2ccccn2)cc1 (stereo not shown) , thanks.
1

EC50 lookup needed for O=C(NCCC(O)CN1CCN(c2cccc(Cl)c2Cl)CC1)c1ccc2c(c1)Cc1ccccc1-2 (stereo not shown) , thanks.
42

====

// reported Ki for each item listed
# Target Desc: human dopamine D2-long (D2) receptor (Homo sapiens (Human), UniProt P14416)
# Sequence (P14416 whole entry): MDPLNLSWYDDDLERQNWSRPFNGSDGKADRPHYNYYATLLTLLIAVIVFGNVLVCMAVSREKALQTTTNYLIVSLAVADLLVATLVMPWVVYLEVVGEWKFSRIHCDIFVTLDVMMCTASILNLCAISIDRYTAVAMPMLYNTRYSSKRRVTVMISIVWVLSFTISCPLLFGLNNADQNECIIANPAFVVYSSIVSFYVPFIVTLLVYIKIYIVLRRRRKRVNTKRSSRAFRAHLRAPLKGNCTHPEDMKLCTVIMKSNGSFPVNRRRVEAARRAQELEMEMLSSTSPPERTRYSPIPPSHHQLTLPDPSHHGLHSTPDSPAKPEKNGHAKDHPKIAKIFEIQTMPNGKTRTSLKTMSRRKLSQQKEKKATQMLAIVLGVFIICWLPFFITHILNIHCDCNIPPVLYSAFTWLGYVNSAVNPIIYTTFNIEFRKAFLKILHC
# Method Description: Human D2-like receptor competition binding in HEK cells, D2
# Run Conditions: hD2L
Only the number, expressed in nM, is required.

Ki lookup needed for COc1ccccc1N1CCN(CC(O)CCNC(=O)c2cc3cc(I)ccc3o2)CC1 (stereo not drawn) , thanks.
158

Ki lookup needed for `Cc1cccnc1-c1ccc(C(=O)NC/C=C/CN2CCN(c3cccc(Cl)c3Cl)CC2)cc1` , thanks.
92

Ki lookup needed for COc1ccccc1N1CCN(CC(O)CCNC(=O)c2cc3ccccc3s2)CC1 (stereo not drawn) , thanks.
337

====

# Target Desc: human D4.4 dopamine receptor (Homo sapiens (Human))
# Sequence (P21917 whole entry): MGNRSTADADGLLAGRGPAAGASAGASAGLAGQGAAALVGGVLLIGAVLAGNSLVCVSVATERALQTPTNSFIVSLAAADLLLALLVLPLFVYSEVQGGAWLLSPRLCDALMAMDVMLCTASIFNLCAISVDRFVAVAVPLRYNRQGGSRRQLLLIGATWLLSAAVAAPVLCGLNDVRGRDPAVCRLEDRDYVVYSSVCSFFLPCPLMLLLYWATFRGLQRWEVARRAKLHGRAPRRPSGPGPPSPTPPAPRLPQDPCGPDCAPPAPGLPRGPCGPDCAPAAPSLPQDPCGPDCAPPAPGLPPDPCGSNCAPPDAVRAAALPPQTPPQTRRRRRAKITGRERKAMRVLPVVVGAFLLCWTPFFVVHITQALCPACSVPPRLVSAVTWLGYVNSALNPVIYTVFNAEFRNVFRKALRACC
# Method Description: Human D2-like receptor competition binding in HEK cells, D4
# Run Conditions: head printed D4/D2; values correspond to D4 Ki over D3 Ki
Measured Quantity: D4/D3 Ki ratio

- Compound: "COc1ccccc1N1CCN(CC(O)CCNC(=O)c2cc3ccccc3[nH]2)CC1 (centres unmarked)"
  D4/D3 Ki ratio: 1401
- Compound: "COc1ccccc1N1CCN(CC(O)CCNC(=O)c2ccc(-c3ccccn3)cc2)CC1 (centres unmarked)"
  D4/D3 Ki ratio: 532
- Compound: "O=C(NCCC(O)CN1CCN(c2cccc(Cl)c2Cl)CC1)c1ccc(-c2ccccn2)cc1 (centres unmarked)"
  D4/D3 Ki ratio: 1540
- Compound: "COc1ccccc1N1CCN(CC(O)CCNC(=O)c2ccc3c(c2)Cc2ccccc2-3)CC1 (centres unmarked)"
  D4/D3 Ki ratio: 683

D4/D3 Ki ratio lookup needed for O=C(NCCC(O)CN1CCN(c2cccc(Cl)c2Cl)CC1)c1ccc2c(c1)Cc1ccccc1-2 (centres unmarked) , thanks.
9110

====

# Target Desc: D2 receptor (human) in CHOp-cells (Homo sapiens (Human), UniProt P14416)
# Sequence (P14416 whole entry): as the sequence (P14416 whole entry) above
# Method Description: D2 stimulation of mitogenesis (agonist assay)
# Run Conditions: read-out: partial agonist activity: EC50, D2
// reported pEC50 for each item listed
API: returns pEC50 as number; meaning -log10 of concentration in mol/L.

- Molecule: "O=C(NC/C=C/CN1CCN(c2cccc(Cl)c2Cl)CC1)c1ccc(-c2cccc[n+]2[O-])cc1 [Compound 12]"
  pEC50: 6.64

Consider the additional molecule presented here.
pEC50 lookup needed for O=C(NCCC(O)CN1CCN(c2cccc(Cl)c2Cl)CC1)c1ccc(-c2ccccn2)cc1 (centres unmarked) [Compound 16] , thanks.
7.80

====

# Target Desc: human dopamine D3 receptor (Homo sapiens (Human), UniProt P35462)
# Method Description: Human D2-like receptor competition binding in HEK cells, D3
# Run Conditions: HEK cells, hD3; read-out: D3 Ki
Note to self: use 1 only for Ki readings below 2 nM; a reading exactly at 2 nM still gets -1.

Lab note: confirm whether the reported Ki for this compound is below 2 nM, equality not counting. compound: CC(=O)OC(CCNC(=O)c1ccc(-c2ccccn2)cc1)CN1CCN(c2cccc(Cl)c2Cl)CC1 (stereo not shown) [Compound 20]
-1

Lab note: confirm whether the reported Ki for this compound is below 2 nM, equality not counting. compound: COc1ccccc1N1CCN(CC(O)CCNC(=O)c2cc3ccccc3s2)CC1 (stereo not shown) [Compound 39]
-1

Lab note: confirm whether the reported Ki for this compound is below 2 nM, equality not counting. compound: O=C(NCCC(O)CN1CCN(c2cccc(Cl)c2Cl)CC1)c1ccc(-c2ccccn2)cc1 (stereo not shown) [Compound 16]
-1

Lab note: confirm whether the reported Ki for this compound is below 2 nM, equality not counting. compound: O=C(NC/C=C/C[N+]1([O-])CCN(c2cccc(Cl)c2Cl)CC1)c1ccc(-c2ccccn2)cc1 [Compound 13]
-1

Lab note: confirm whether the reported Ki for this compound is below 2 nM, equality not counting. compound: O=C(NCC(O)CCN1CCN(c2cccc(Cl)c2Cl)CC1)c1ccc(-c2ccccn2)cc1 (stereo not shown) [Compound 21]
1

Lab note: confirm whether the reported Ki for this compound is below 2 nM, equality not counting. compound: COc1ccc2oc(C(=O)NCCC(O)CN3CCN(c4ccccc4OC)CC3)cc2c1 (stereo not shown) [Compound 49]
1

Lab note: confirm whether the reported Ki for this compound is below 2 nM, equality not counting. compound: COc1ccccc1N1CCN(CC(O)CCNC(=O)c2cc3cc(F)ccc3o2)CC1 (stereo not shown) [Compound 47]
1

Lab note: confirm whether the reported Ki for this compound is below 2 nM, equality not counting. compound: COc1ccccc1N1CCN(CCC(O)CNC(=O)c2cc3ccccc3[nH]2)CC1 (stereo not shown) [Compound 37]
1

Lab note: confirm whether the reported Ki for this compound is below 2 nM, equality not counting. compound: COc1ccccc1N1CCN(CC(O)CCNC(=O)c2cc3cc(I)ccc3o2)CC1 (stereo not shown) [Compound 44]
-1

Lab note: confirm whether the reported Ki for this compound is below 2 nM, equality not counting. compound: O=C(NCCC(O)CN1CCN(c2cccc(Cl)c2Cl)CC1)c1cc2cc(I)ccc2o1 (stereo not shown) [Compound 45]
-1

Lab note: confirm whether the reported Ki for this compound is below 2 nM, equality not counting. compound: O=C(NC/C=C/CN1CCN(c2cccc(Cl)c2Cl)CC1)c1ccc(-c2cccc[n+]2[O-])cc1 [Compound 12]
1

Lab note: confirm whether the reported Ki for this compound is below 2 nM, equality not counting. compound: COc1ccc2oc(C(=O)NCCC(O)CN3CCN(c4cccc(Cl)c4Cl)CC3)cc2c1 (stereo not shown) [Compound 48]
1
